- Measurement parameters: 323.15 K; 55000 kPa; Liquid; Vibrating tube method
Reported property: mass density (kg/m3)

>  <Smiles record>
Cc1ccsc1

>  <mass density / kg/m3>
1032.03

$$$$
>  <Smiles record>
c1ccsc1

>  <mass density / kg/m3>
1074.48

$$$$
>  <Smiles record>
Cc1cccs1

>  <mass density / kg/m3>
1031.14

$$$$
>  <Smiles record>
Cc1ccc(C)s1

>  <mass density / kg/m3>
997.27

$$$$

----------
- Measurement parameters: 313.15 K; 10000 kPa; Liquid; Vibrating tube method
Reported property: mass density (kg/m3)

>  <Compound>
Cc1ccc(C)s1 [2,5-dimethylthiophene]

>  <Measurement units>
kg/m3

>  <mass density>
973.5

$$$$
>  <Compound>
c1ccsc1 [thiophene]

>  <Measurement units>
kg/m3

>  <mass density>
1049.91

$$$$
>  <Compound>
Cc1ccsc1 [3-methylthiophene]

>  <Measurement units>
kg/m3

>  <mass density>
1008.64

$$$$
>  <Compound>
Cc1cccs1 [2-methylthiophene]

>  <Measurement units>
kg/m3

>  <mass density>
1007.28

$$$$
